target: α2C receptor (Homo sapiens); construct: expressed in transfected cells; host or cells: CHO-K1; assay: Competitive receptor binding assay, α2C (3H-RX821002, CHO-K1-α2C membranes); details: Ki; CHO-K1-α2C membranes, 3H-RX821002; read-out: Binding α2C
Sequence (P18825 whole entry): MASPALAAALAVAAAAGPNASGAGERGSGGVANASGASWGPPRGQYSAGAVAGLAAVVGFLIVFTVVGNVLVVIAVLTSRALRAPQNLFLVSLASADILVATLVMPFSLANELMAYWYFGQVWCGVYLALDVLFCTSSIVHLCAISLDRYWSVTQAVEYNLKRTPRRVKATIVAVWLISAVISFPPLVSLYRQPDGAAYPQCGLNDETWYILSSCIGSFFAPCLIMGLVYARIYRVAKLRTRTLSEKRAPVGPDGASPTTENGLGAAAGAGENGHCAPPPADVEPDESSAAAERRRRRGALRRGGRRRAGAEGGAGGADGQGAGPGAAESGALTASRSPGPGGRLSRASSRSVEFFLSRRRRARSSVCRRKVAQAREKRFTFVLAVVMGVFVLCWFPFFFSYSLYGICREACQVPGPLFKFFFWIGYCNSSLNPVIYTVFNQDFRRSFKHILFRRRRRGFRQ
Counter-ions that a name gives are not always drawn.
Measured Ki of individual entries
# value in nM; strip the unit string

# Molecule, Uom, Ki
records = [
    ("C[C@H](c1c[nH]cn1)c1cc(F)cc2c1C(=O)CC2", "nM", 36.4),
    ("Cc1cccc([C@H](C)c2cnc[nH]2)c1C [Dexmedetomidine hydrochloride, reference compound]", "nM", 7.34),
    ("c1cc2c(c(Cc3c[nH]cn3)c1)SCCC2", "nM", 29.3),
]

Continue with the molecule presented below.
In: Tell me Ki of CC(c1c[nH]cn1)c1cccc2c1SCCC2 (stereo not shown) when tested on α2C receptor (Homo sapiens).
Out: 13.8

----------
target: α2A receptor (Homo sapiens); construct: expressed in transfected cells; host or cells: CHO-K1; assay: Competitive receptor binding assay, α2A (3H-RX821002, CHO-K1-α2A membranes); settings: in words, compared with dexmedetomidine hydrochloride
Measured Attribute: affinity for the α2A receptor

# Compound, Measured Attribute, Test Result
data = [
    ("c1cc2c(c(Cc3c[nH]cn3)c1)SCCC2 [Compound 1]", "affinity for the α2A receptor", "comparable"),
    ("CC(c1c[nH]cn1)c1cccc2c1OCC2 (stereo not drawn) [Compound 10]", "affinity for the α2A receptor", "superior"),
    ("CC(c1c[nH]cn1)c1cccc2c1CC2 (stereo not drawn) [Compound 3]", "affinity for the α2A receptor", "comparable"),
    ("CC(c1c[nH]cn1)c1cccc2c1C=CC2 (stereo not drawn) [Compound 8, 4-[1-(1H-Inden-4-yl)ethyl]-1H-imidazole]", "affinity for the α2A receptor", "comparable"),
    ("CC(c1c[nH]cn1)c1cccc2c1CCCC2 (stereo not drawn) [Compound 4]", "affinity for the α2A receptor", "comparable"),
]

Continue with the compound presented below.
In: Name the recorded affinity for the α2A receptor of the item CC(c1c[nH]cn1)c1cccc2c1SCCC2 (stereo not drawn) [Compound 2] in your answer.
Out: superior

----------
target: α2A receptor (Homo sapiens, UniProt P08913); construct: expressed in transfected cells; host or cells: CHO-K1; assay: Competitive receptor binding assay, α2A (3H-RX821002, CHO-K1-α2A membranes); conditions: in words, compared with dexmedetomidine hydrochloride
Sequence (P08913 whole entry): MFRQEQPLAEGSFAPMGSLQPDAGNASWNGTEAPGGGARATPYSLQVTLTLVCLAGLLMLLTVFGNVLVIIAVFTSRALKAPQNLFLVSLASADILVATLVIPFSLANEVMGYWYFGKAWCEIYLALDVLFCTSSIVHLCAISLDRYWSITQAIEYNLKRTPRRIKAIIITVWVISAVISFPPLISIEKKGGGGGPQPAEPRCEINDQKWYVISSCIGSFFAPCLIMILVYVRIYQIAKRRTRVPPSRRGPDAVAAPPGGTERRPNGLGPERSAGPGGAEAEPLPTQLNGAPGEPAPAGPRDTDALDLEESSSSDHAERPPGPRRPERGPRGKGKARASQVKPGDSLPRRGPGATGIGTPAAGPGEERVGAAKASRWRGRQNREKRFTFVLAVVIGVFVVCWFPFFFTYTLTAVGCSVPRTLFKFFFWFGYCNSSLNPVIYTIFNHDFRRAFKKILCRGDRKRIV

# Molecule, Assay System, affinity α1A/2A
records = [
    ("CC(c1c[nH]cn1)c1cccc2c1C=CC2 (stereo not shown) [Compound 8, 4-[1-(1H-Inden-4-yl)ethyl]-1H-imidazole]", "α2A receptor (Homo sapiens, UniProt P08913)", "superior"),
    ("CC(c1c[nH]cn1)c1cccc2c1OCC2 (stereo not shown) [Compound 10]", "α2A receptor (Homo sapiens, UniProt P08913)", "superior"),
    ("CC(c1c[nH]cn1)c1cccc2c1CCCC2 (stereo not shown) [Compound 4]", "α2A receptor (Homo sapiens, UniProt P08913)", "superior"),
]

----------
Tested on: Male SD rats
Experiment: Hypnotic efficacy: loss of righting reflex (LORR) in rats
Format: in vivo
Details: loss of righting reflex, male SD rats, tail vein injection, dose twice the ED50, 10 rats per group
Method: The sequential method was used to determine the ED50 (median effective dose) for the loss of righting reflex (LORR) by the compounds of the present disclosure in rats: Male SD rats, weighing 200-300 grams, were used. […] This process was repeated, and the results were recorded in the AOT425 Statpm software until the software could calculate the ED50, at which point the experiment was terminated. […]
Where a name gives a salt, the structure may show the parent alone.
Measured Attribute: Onset time

# Compound, Onset time
rows = [
    ("CC(c1c[nH]cn1)c1cccc2c1COC2 (centres unmarked) [Compound 5]", "99.20±29.98 S"),
    ("CC(c1c[nH]cn1)c1cccc2c1OCC2 (centres unmarked) [Compound 10]", "219.90±93.88 S"),
    ("CC(c1c[nH]cn1)c1cccc2c1C=CC2(C)C (centres unmarked) [Compound 17]", "101.80±154.86 S"),
    ("C[C@H](c1c[nH]cn1)c1cc(F)cc2c1C=CC2 [Compound 11-b]", "45.20±7.38 S"),
    ("Cc1cccc([C@H](C)c2cnc[nH]2)c1C [Dexmedetomidine hydrochloride, reference compound]", "77.80±28.56 S"),
]

In: Name the recorded Onset time of the item CC(c1c[nH]cn1)c1cccc2c1C=CC2 (centres unmarked) [Compound 8, 4-[1-(1H-Inden-4-yl)ethyl]-1H-imidazole] in your answer.
Out: 161.70±101.69 S

In: Name the recorded Onset time of the item C[C@H](c1c[nH]cn1)c1cccc2c1CCC2 [Compound 31-b] in your answer.
Out: 100.44±49.16 S

In: Name the recorded Onset time of the item C[C@H](c1c[nH]cn1)c1cc(F)cc2c1C(=O)CC2 [Compound 38-b] in your answer.
Out: 102.44±52.34 S

----------
molecular target: α2A receptor (Homo sapiens, UniProt P08913); construct: expressed in transfected cells; host or cells: CHO-K1; test: Competitive receptor binding assay, α2A (3H-RX821002, CHO-K1-α2A membranes)
Measured Attribute: pKi
Scale: negative log10 of molar concentration, which is what pKi denotes.

Sample answers from the record:
# Molecule, pKi
measured = [
    ("CC(c1c[nH]cn1)c1cccc2c1CCCC2 (centres unmarked)", 7.54),
    ("CC(c1c[nH]cn1)c1cccc2c1C=CC2 (centres unmarked) [Compound 8, 4-[1-(1H-Inden-4-yl)ethyl]-1H-imidazole]", 7.96),
    ("CC(c1c[nH]cn1)c1cccc2c1OCC2 (centres unmarked)", 8.62),
    ("CC(c1c[nH]cn1)c1cccc2c1CC2 (centres unmarked)", 7.54),
    ("CC1Cc2cccc(C(C)c3c[nH]cn3)c2O1 (centres unmarked)", 8.31),
]

In: Name the recorded pKi of the item CC(c1c[nH]cn1)c1cccc2c1C=CC2(C)C (centres unmarked) in your answer.
Out: 6.85

In: Name the recorded pKi of the item C[C@H](c1c[nH]cn1)c1cc(F)cc2c1C=CC2 in your answer.
Out: 6.68

In: Name the recorded pKi of the item C[C@H](c1c[nH]cn1)c1cccc2c1CCC2 in your answer.
Out: 7.63

----------
Measured pEC50 of individual entries
molecular target: α2C adrenoceptor (Homo sapiens); test: Agonist screening mode IP-One assay, CHO-α2C/Gα15 cells
Sequence (P18825 whole entry): as the sequence (P18825 whole entry) above
Counter-ions that a name gives are not always drawn.
Scale: negative log10 of molar concentration, which is what pEC50 denotes.

In: Name the recorded pEC50 of the item CC(c1c[nH]cn1)c1cccc2c1OCC2 (stereo not drawn) in your answer.
Out: 8.40

In: Name the recorded pEC50 of the item CC(c1c[nH]cn1)c1cccc2c1CC2 (stereo not drawn) in your answer.
Out: 6.72

In: Name the recorded pEC50 of the item c1cc2c(c(Cc3c[nH]cn3)c1)SCCC2 in your answer.
Out: 7.81

In: Name the recorded pEC50 of the item Cc1cccc([C@H](C)c2cnc[nH]2)c1C [Dexmedetomidine hydrochloride, reference compound] in your answer.
Out: 8.69

In: Name the recorded pEC50 of the item CC(c1c[nH]cn1)c1cccc2c1SCCC2 (stereo not drawn) in your answer.
Out: 7.73

In: Name the recorded pEC50 of the item CC(c1c[nH]cn1)c1cccc2c1CCCC2 (stereo not drawn) in your answer.
Out: 6.56

In: Name the recorded pEC50 of the item CC1Cc2cccc(C(C)c3c[nH]cn3)c2O1 (stereo not drawn) in your answer.
Out: 8.09

In: Name the recorded pEC50 of the item C[C@H](c1c[nH]cn1)c1cc(F)cc2c1C=CC2 in your answer.
Out: 9.06

In: Name the recorded pEC50 of the item C[C@H](c1c[nH]cn1)c1cc(F)cc2c1C(=O)CC2 in your answer.
Out: 8.66

----------
molecular target: α2B adrenoceptor (Homo sapiens, UniProt P18089); construct: host or cells: CHO; assay: Agonist screening mode IP-One assay, CHO-α2B/Gα15 cells; format: cell-based
Measured Attribute: EC50 (nM)
# value in nM; strip the unit string

# Compound, Assay System, Test Result
rows = [
    ("CC(c1c[nH]cn1)c1cccc2c1C=CC2 (stereo not shown) [Compound 8, 4-[1-(1H-Inden-4-yl)ethyl]-1H-imidazole]", "α2B adrenoceptor (Homo sapiens, UniProt P18089)", 17.7),
]

Continue with the compound presented below.
In: Name the recorded EC50 of the item CC(c1c[nH]cn1)c1cccc2c1OCC2 (stereo not shown) in your answer.
Out: 1.66

----------
Target: α2B adrenoceptor (Homo sapiens, UniProt P18089)
Sequence (P18089 1-450): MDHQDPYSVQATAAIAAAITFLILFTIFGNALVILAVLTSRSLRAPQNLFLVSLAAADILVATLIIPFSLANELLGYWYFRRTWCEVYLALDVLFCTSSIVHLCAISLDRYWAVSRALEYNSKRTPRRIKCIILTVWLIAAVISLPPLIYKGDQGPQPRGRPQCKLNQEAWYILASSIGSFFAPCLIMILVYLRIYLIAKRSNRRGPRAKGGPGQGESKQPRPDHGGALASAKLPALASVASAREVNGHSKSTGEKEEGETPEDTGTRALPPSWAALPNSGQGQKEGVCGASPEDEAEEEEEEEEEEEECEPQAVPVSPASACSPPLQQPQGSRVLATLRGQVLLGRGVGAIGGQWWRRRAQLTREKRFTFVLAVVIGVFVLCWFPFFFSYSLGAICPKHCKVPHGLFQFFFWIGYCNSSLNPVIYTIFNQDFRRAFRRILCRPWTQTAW
Experiment: Agonist screening mode IP-One assay, CHO-α2B/Gα15 cells
Measured pEC50 of individual entries
Scale: negative log10 of molar concentration, which is what pEC50 denotes.

# Molecule, Measured Attribute, Test Result
rows = [
    ("CC1Cc2cccc(C(C)c3c[nH]cn3)c2O1 (centres unmarked)", "pEC50", 8.65),
]

In: Name the recorded pEC50 of the item CC(c1c[nH]cn1)c1cccc2c1CC2 (centres unmarked) in your answer.
Out: 8.26

In: Name the recorded pEC50 of the item CC(c1c[nH]cn1)c1cccc2c1SCCC2 (centres unmarked) in your answer.
Out: 8.52

In: Name the recorded pEC50 of the item CC(c1c[nH]cn1)c1cccc2c1CCCC2 (centres unmarked) in your answer.
Out: 7.26

In: Name the recorded pEC50 of the item c1cc2c(c(Cc3c[nH]cn3)c1)SCCC2 in your answer.
Out: 8.39
